A collection of binders and their measured phage ELISA signal ratio
# TARGET_DESC: T1, TOM1L1 1-150 VHS (domain begin residue: 1, domain end residue: 150), O75674
# T1 chain: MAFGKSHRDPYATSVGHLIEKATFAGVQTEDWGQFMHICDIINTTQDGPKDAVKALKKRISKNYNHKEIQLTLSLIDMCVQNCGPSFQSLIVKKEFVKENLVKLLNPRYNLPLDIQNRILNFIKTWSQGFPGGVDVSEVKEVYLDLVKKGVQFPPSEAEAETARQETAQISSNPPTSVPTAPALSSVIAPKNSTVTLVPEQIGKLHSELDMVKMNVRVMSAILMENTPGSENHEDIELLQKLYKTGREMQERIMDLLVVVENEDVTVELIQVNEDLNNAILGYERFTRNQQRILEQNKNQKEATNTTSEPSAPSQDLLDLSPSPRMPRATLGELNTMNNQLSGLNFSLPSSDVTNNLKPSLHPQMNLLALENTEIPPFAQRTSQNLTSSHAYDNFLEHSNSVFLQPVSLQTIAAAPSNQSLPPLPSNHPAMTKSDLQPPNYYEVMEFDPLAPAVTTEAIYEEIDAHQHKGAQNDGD
# ASSAY_REMARKS: phage ELISA signal ratio (GST-PRM binding over GST background); higher = stronger binding of peptide-phage to the PRM
Lab note: record the figure alone, no unit after it.

Before answering, review these 3 worked examples.
# BINDER, phage ELISA signal ratio
data = [
    ("DFTWLHSEKWWPEEWG", 14.3),
    ("DDHLWHPSFKWWDEYV", 15.8),
    ("ETDKWVPSYLWWANYS", 16.8),
]

stdin: Specify reported phage ELISA signal ratio for the binder shown: LEWTWYDTWTWPEESQ
stdout: 22

stdin: Specify reported phage ELISA signal ratio for the binder shown: VSEGQWRPSYLWWTDD
stdout: 4.64

stdin: Specify reported phage ELISA signal ratio for the binder shown: NNNWWMQWHVEEHEME
stdout: 4.26

stdin: Specify reported phage ELISA signal ratio for the binder shown: YQMSWMPSEIWWLNYV
stdout: 9.38

stdin: Specify reported phage ELISA signal ratio for the binder shown: FVDWDIPSWWFQQVTS
stdout: 15.1

stdin: Specify reported phage ELISA signal ratio for the binder shown: ADGWGWYENWVWPASM
stdout: 4.28
